Tested on: Crude diglycosidase
methodNotes: Examination of temperature in the conversion into isoflavone aglycons by diglycosidase using soybean materials
Format: biochemical, Penicillium multicolor IAM7153
protocolConditions: 30 °C; heat treatment of enzyme: no; 0 h
experimentalReadout: Decomposition efficiency of glycitin family in concentrated soybean protein

COc1cc2c(=O)c(-c3ccc(O)cc3)coc2cc1O[C@@H]1O[C@H](COC(C)=O)[C@@H](O)[C@H](O)[C@H]1O 36.0%
COc1cc2c(=O)c(-c3ccc(O)cc3)coc2cc1O[C@@H]1O[C@H](COC(=O)CC(=O)O)[C@@H](O)[C@H](O)[C@H]1O 0.4%
COc1cc2c(=O)c(-c3ccc(O)cc3)coc2cc1O[C@@H]1O[C@H](CO)[C@@H](O)[C@H](O)[C@H]1O 52.2%

Q) What value of Decomposition efficiency of glycitin family in concentrated soybean protein has been recorded for this entry: COc1cc2c(=O)c(-c3ccc(O)cc3)coc2cc1O
A) 11.4%
